The reported numbers originate from patent US10174006B2.

ASSAY NAME: Ocular tissue and plasma PK after repeated t.i.d. monocular dosing for 7 days
Format: in vivo, pigmented rabbits
EXPERIMENTAL CONDITIONS: NZW×NZR (pigmented), rabbit, RPE/choroid of the dosed eye (OD), topical or ocular, 2 % formulation; RPE/Choroid OD (dosed eye), 2% t.i.d. 7 days
MEASURED METRIC: Cmax (ng/g)
API: value field is a number in ng/g; no unit string.

What value of measured Cmax is listed for CNCc1cc(Oc2ccc3c(ccn3C(=O)Nc3cc(C(F)(F)F)n(C)n3)c2)ncn1 ?
6410

----------
ASSAY NAME: Ocular tissue and plasma PK after single unilateral topical dose
Type: in vivo, pigmented NZW×NZR rabbits
EXPERIMENTAL CONDITIONS: pigmented NZW×NZR, rabbit, single unilateral 30 μL dose at 0.5%, 1% and 2%, RPE/choroid
Experimental: A single unilateral dose (30 μL) of a preferred ophthalmic suspension composition (i.e., suspension C-2 in Example 3 below) of the present invention was dosed onto the right (OD) eye of pigmented NZW×NZR rabbits at 0.5%, 1%, and 2% N-(1-methyl-5-(trifluoromethyl)-1H-pyrazol-3-yl)-5-((6-((methylamino)methyl)pyrimidin-4-yl)oxy)-1H-indole-1-carboxamide.
MEASURED METRIC: Tmax

What value of measured Tmax is listed for CNCc1cc(Oc2ccc3c(ccn3C(=O)Nc3cc(C(F)(F)F)n(C)n3)c2)ncn1 [LHA510] ?
18 to 48 h
